Known selectivity ratio of a selection of compounds
- Procedure Details: Selectivity index, ratio of IC50 for mouse spleen cells to IC50 for asynchronous form of Plasmodium falciparum 3D7 infected in human erythrocytes
- Assay type: toxicity, cell-based
- Test Context: read-out: Ratio IC50
Endpoint Label: selectivity ratio

• O=C(/C=C/c1ccc(NC(=O)Cc2cccc3ccccc23)cn1)NO = 9
• COc1cc2nc(NCc3ccc(F)cc3)nc(NC3CCN(C(=O)OC(C)(C)C)CC3)c2cc1OC = > 500
• COc1cc2nc(N3CCCN(C)CC3)nc(NC3CCN(Cc4ccccc4)CC3)c2cc1OC = 23
• COc1cc2c(NC3CCN(Cc4ccccc4)CC3)nc(N3CCN(c4ccccc4)CC3)nc2cc1OCc1ccccc1 = > 295
• COc1ccc(CCN2CCC(Nc3nc(NCc4ccc(F)cc4)nc4cc(OC)c(OC)cc34)CC2)cc1 = 44
• O=C(CCCCSc1nc(-c2ccc(-c3ccccc3)cc2)cc(=O)[nH]1)NO = 186
• COc1cc2c(NC3CCN(Cc4ccccc4)CC3)nc(N3CCN(c4ccccc4)CC3)nc2cc1O = 255
• COc1cc2c(NC3CCN(C(C)C)CC3)nc(C3CCCCC3)nc2cc1OCCCN1CCCC1 = 21

###

- System: Plasmodium falciparum
- Procedure Details: Antiplasmodial activity against asynchronous form of Plasmodium falciparum 3D7 infected in human erythrocytes assessed as parasite growth inhibition after 48 hrs by SYBR green1 staining based flow cytometry
- Format: functional, organism-based
- Test Context: 3D7, 48 h
Endpoint Label: IC50 (nM)

* COc1cc2c(NCCNc3cccc4ccccc34)nc(N3CCN(c4ccccc4)CC3)nc2cc1OCc1ccccc1 | 56.2
* c1ccc(CCCN2CCC(Nc3nc(N4CCN(c5ccccc5)CC4)nc4ccccc34)CC2)cc1 | 75.1

###

- Procedure Details: Plasma concentration in Crl:NRMI mouse at 50 mg/kg, iv measured after 60 mins by LC-MS/MS analysis
- Assay type: ADME, organism-based
Endpoint Label: concentration at 1 h

* O=C(CCCCSc1nc(-c2ccc(-c3ccccc3)cc2)cc(=O)[nH]1)NO | 1670 to 2160 nM

###

- Procedure Details: Plasma concentration in Crl:NRMI mouse at 10 mg/kg, iv measured after 180 mins by LC-MS/MS analysis
- Format: ADME, organism-based
Endpoint Label: concentration at 3 h

* COc1cc2nc(NCc3ccc(F)cc3)nc(NC3CCN(C(=O)OC(C)(C)C)CC3)c2cc1OC | 220 to 460 nM

###

- Procedure Details: Plasma concentration in Crl:NRMI mouse at 50 mg/kg, iv measured after 15 mins by LC-MS/MS analysis
- Assay type: ADME, organism-based
Endpoint Label: concentration at 0.25 h

- O=C(CCCCSc1nc(-c2ccc(-c3ccccc3)cc2)cc(=O)[nH]1)NO: 10.7 to 15.2 µM

###

- Procedure Details: Plasma concentration in Crl:NRMI mouse at 10 mg/kg, po administered via gavage measured after 60 mins by LC-MS/MS analysis
- Type: ADME, organism-based
Endpoint Label: concentration at 1 h

• COc1cc2nc(NCc3ccc(F)cc3)nc(NC3CCN(C(=O)OC(C)(C)C)CC3)c2cc1OC = 100 to 280 nM

###

- System Tested: UniProtKB Q13547
- Sequence (Q13547 whole entry): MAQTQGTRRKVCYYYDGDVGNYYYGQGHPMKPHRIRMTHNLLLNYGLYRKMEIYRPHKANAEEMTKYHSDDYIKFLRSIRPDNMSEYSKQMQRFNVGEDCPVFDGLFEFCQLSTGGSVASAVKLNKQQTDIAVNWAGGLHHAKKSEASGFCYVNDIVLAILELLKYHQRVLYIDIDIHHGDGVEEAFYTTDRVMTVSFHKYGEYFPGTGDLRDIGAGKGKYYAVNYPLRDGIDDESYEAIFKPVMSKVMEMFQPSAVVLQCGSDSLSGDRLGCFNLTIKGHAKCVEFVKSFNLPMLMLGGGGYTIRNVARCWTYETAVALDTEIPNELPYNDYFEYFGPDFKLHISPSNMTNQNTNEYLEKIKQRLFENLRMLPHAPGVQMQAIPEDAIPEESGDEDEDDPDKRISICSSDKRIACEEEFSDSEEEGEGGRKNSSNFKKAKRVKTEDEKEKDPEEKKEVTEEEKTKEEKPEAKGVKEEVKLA
- Procedure Details: Inhibition of recombinant human HDAC1 using RHK-K(Ac) as substrate by homogeneous fluorescence release assay
pIC50: −log10 of the molar value.
Endpoint Label: pIC50

- O=C(CCCCSc1nc(-c2ccc3ccccc3c2)cc(=O)[nH]1)NO: 5.77
- O=C(CCCCCSc1nc(-c2ccc3ccccc3c2)cc(=O)[nH]1)NO: 6.00
- O=C(/C=C/c1ccc(NC(=O)Cc2cccc3ccccc23)cn1)NO: 7.00
- O=C(Cc1cccc2ccccc12)Nc1ccc(C(=O)NO)nc1: 6.52
- O=C(CCCCCSc1nc(-c2ccc(-c3ccccc3)cc2)cc(=O)[nH]1)NO: 7.00
- O=C(Cc1ccccc1)Nc1ccc(C(=O)NO)nc1: 6.70
